These entries and their values trace back to ChEMBL document CHEMBL1132555.

# experimental system: Epidermal growth factor receptor (Homo sapiens)
# Sequence (P00533 whole entry): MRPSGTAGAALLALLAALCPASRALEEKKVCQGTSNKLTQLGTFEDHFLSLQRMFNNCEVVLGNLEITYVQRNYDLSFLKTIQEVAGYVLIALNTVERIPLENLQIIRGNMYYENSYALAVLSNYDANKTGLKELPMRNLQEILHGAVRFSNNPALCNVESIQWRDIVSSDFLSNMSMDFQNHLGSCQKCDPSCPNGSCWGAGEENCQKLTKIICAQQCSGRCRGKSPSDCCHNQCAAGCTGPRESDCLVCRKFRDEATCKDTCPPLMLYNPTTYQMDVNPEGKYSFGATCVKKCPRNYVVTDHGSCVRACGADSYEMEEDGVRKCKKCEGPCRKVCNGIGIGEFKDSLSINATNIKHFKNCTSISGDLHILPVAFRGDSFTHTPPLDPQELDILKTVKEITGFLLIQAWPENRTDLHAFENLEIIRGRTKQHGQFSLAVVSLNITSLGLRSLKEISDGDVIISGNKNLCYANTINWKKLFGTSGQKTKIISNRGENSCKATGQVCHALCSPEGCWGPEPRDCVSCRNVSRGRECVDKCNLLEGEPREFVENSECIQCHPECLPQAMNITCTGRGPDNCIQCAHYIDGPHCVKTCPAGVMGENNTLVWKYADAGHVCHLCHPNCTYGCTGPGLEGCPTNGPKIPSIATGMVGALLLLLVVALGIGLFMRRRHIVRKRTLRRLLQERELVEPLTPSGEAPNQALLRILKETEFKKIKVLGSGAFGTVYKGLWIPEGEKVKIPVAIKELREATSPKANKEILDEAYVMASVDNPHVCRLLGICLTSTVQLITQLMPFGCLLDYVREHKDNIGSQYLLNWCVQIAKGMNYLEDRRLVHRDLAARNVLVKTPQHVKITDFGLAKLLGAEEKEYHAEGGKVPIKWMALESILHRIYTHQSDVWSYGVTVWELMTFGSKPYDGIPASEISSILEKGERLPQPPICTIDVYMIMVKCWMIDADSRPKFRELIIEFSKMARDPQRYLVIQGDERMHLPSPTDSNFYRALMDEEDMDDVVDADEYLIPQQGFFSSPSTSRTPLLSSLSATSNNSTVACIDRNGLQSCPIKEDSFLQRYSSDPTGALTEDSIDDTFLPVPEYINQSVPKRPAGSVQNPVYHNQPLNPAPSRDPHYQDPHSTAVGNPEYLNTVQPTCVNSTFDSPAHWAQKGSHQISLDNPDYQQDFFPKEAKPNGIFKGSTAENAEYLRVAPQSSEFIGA
pIC50: −log10 of the molar value.
quantity: pIC50

>  <smiles text>
Nc1ccc2c(c1)sc1c(Nc3cccc(Br)c3)ncnc12

>  <experimental system>
Epidermal growth factor receptor (Homo sapiens)

>  <pIC50>
9.33

$$$$
>  <smiles text>
Cc1cccc(Nc2cc(NCCO)ncn2)c1

>  <experimental system>
Epidermal growth factor receptor (Homo sapiens)

>  <pIC50>
9.00

$$$$

P: Nc1nc(Nc2cccc(Br)c2)c2c(n1)[nH]c1ccccc12
Q: COc1ccc2[nH]c3ncnc(Nc4cccc(Br)c4)c3c2c1
Query: Among P and Q , which shows a numerically higher pIC50 result? Identify your pick by its label.
Reply: Q
(Q: 8.92, P: 6.83)
